system: SNRK; settings: concentration: 1 μM,replicates: in singlicate; n = 1;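 note: KINOMEscan kinase panel screen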
recordedMetric: %Inh (%)
Quick note: give the figure in %, leave out the unit.

[
  {
    "compound": "CC(=O)c1c(-c2ccncc2)[nH]c(-c2ccncc2)c1C",
    "targetSystem": "SNRK",
    "u": "%",
    "%Inh": 0
  }
]

Sample O=C(NOCC1CC1)c1cc(Br)c(F)c(F)c1Nc1ccc(I)cc1Cl ; %Inh observed: 0

Summary for this compound, CC(C(=O)NC1CCN(c2ccnc(Nc3ccc(F)cc3)n2)C1)c1ccc(Cl)cc1 (centres unmarked) : %Inh is 0

%Inh recorded for this compound, COC(=O)c1cccc(NC(=O)NC2CCN(c3ccnc(Nc4cc(OC)c(OC)c(OC)c4)n3)C2)c1 (centres unmarked) , is 0

Sample C[C@@H]1CCN(C(=O)N2CCCC2)C[C@@H]1N(C)c1ncnc2[nH]ccc12 ; %Inh observed: 18

Field %Inh (entry O=C(Nc1cccc(C(F)(F)F)c1)c1cccc(Oc2ccc3nccn3n2)c1 ) reads 1

Record c1ccc(Oc2ccc(Nc3ccnc4ccc(-c5ccccn5)cc34)cc2)cc1 . Reported %Inh: 0

// NC(=O)c1ccc(-c2cc3ncnc(SCC(=O)O)c3s2)cc1 : %Inh value = 0

Data point: Cn1ccc2ncnc(Oc3ccc(NC(=O)Nc4ccnc(C(F)(F)F)c4)c(Cl)c3)c21 ; %Inh = 0

get_value(item= Cc1cccc(-c2nc(Nc3ccncc3)c3sccc3n2)n1 , readout=%Inh) returns 25

----------
test system: ULK3; conditions: concentration: 1 μM,replicates: in singlicate; n = 1
This section presents compounds with their documented %Inh values.
Reply numerically in %, unit not repeated.

[
  {
    "compound": "Cn1ccc2ncnc(Oc3ccc(NC(=O)Nc4cnn(C(C)(C)C)c4)c(Cl)c3)c21",
    "targetSystem": "ULK3",
    "%Inh [%]": 0
  },
  {
    "compound": "CN1CCN(CCCNc2nccc(-c3c(-c4ccc(F)cc4)nn4cc(C(N)=O)ccc34)n2)CC1 [GW622475]",
    "targetSystem": "ULK3",
    "%Inh [%]": 0
  },
  {
    "compound": "COc1cc(Nc2nccc(N3CCC(NC(=O)c4cccc(C#N)c4)C3)n2)cc(OC)c1OC (stereo not shown) [GSK1379751]",
    "targetSystem": "ULK3",
    "%Inh [%]": 96.7
  }
]

Let's switch to this compound now.
The value of %Inh measured for the compound CN(c1ccccc1CNc1nc(Nc2ccc3c(c2)CC(=O)N3)ncc1C(F)(F)F)S(C)(=O)=O turned out to be 40

----------
tested on: CLK4; settings: concentration: 1 μM,replicates: in singlicate; n = 1
Each entry gets not satisfied if its %Inh stays under 9%, and satisfied if its %Inh is 9% or above.

Examples with answers:
[
  {
    "compound": "COc1cc2ncn(-c3cc(OCC4CCCCC4)c(C(N)=O)s3)c2cc1OC",
    "targetSystem": "CLK4",
    "assignedClass": "satisfied"
  },
  {
    "compound": "COc1cccc(C2=C(Nc3cccc(Cl)c3)C(=O)NC2=O)c1",
    "targetSystem": "CLK4",
    "assignedClass": "satisfied"
  },
  {
    "compound": "Cl.Nc1n[nH]c2cc(-c3ccccn3)ccc12",
    "targetSystem": "CLK4",
    "assignedClass": "satisfied"
  },
  {
    "compound": "NC(=O)c1ccc(-c2cc3ncnc(SCC(=O)O)c3s2)cc1",
    "targetSystem": "CLK4",
    "assignedClass": "satisfied"
  },
  {
    "compound": "COc1cccc(CNC(=O)NC2CCN(c3ccnc(Nc4cc(OC)c(OC)c(OC)c4)n3)C2)c1 (stereo not drawn)",
    "targetSystem": "CLK4",
    "assignedClass": "satisfied"
  }
]

I'd appreciate it if you could say whether O=C(NOCC1CC1)c1cc(Br)c(F)c(F)c1Nc1ccc(I)cc1Cl has %Inh at least equal to 9%. not satisfied

%Inh >= 9% for CSc1nccc(-c2c(-c3ccc(F)cc3)ncn2CCCN2CCOCC2)n1.Cl ? satisfied

----------
test system: MAK; conditions: concentration: 1 μM,replicates: in singlicate; n = 1
// assign Y if %Inh falls strictly below 20%, else N (ties count as N)

Study these solved cases before continuing.
[
  {
    "compound": "COc1cc(Nc2nccc(N3CCC(NC(=O)c4cccc(C#N)c4)C3)n2)cc(OC)c1OC (centres unmarked) [GSK1379751]",
    "targetSystem": "MAK",
    "assignedClass": "Y"
  },
  {
    "compound": "Cl.c1ccc(Oc2ccc(Nc3ccnc4cc(-c5ccc(CN6CCNCC6)o5)ccc34)cc2)nc1 [GW567142]",
    "targetSystem": "MAK",
    "assignedClass": "N"
  },
  {
    "compound": "COc1cccc(C2=C(Nc3cccc(Cl)c3)C(=O)NC2=O)c1 [SB-341556]",
    "targetSystem": "MAK",
    "assignedClass": "Y"
  },
  {
    "compound": "CCn1c(-c2nonc2N)nc2cncc(CNC3CCNCC3)c21.Cl [SB-747651]",
    "targetSystem": "MAK",
    "assignedClass": "N"
  },
  {
    "compound": "CC(=O)Nc1nc2cnc(Nc3cc(NC(=O)c4cccc(CC(C)(C)C#N)c4)ccc3C)nc2s1",
    "targetSystem": "MAK",
    "assignedClass": "Y"
  }
]

Hello, is %Inh of the following compound strictly smaller than 20%? CN(c1ccccc1CNc1nc(Nc2ccc3c(c2)CC(=O)N3)ncc1C(F)(F)F)S(C)(=O)=O Y

Would you kindly verify if %Inh of O=C(Nc1ccccc1)c1cccc(Oc2ccc3nccn3n2)c1 is strictly less than 20%? N

Is %Inh strictly under 20% for the entry Cn1ccc2ncnc(Oc3ccc(NC(=O)Nc4cccc(C(F)(F)F)c4)c(F)c3)c21 ? N

I'd appreciate it if you could check whether CC(C(=O)NC1CCN(c2ccnc(Nc3ccc(F)cc3)n2)C1)c1ccc(Cl)cc1 (centres unmarked) [GSK1379713] has %Inh smaller than 20%. Y

Hello, is %Inh of the following compound strictly smaller than 20%? CCNCC(Cc1ccccc1)NC(=O)c1cc(Br)c(-c2ccnc3[nH]ccc23)s1.Cl.Cl (centres unmarked) [GSK1383280] N

Criterion: %Inh strictly below 20%. Is it met by C[C@@H]1CNc2c(sc3ccc4nc(-c5ccc(O)cc5)ccc4c23)C(=O)N1 ? N

Item COc1cc2c(Nc3ccc(NC(=O)c4ccccc4)cc3)ncnc2cc1OCCCN1CCOCC1 [GSK301329] : %Inh beneath 20%, strictly? Y

Does the reported %Inh of the following compound sit strictly below 20%? CN(c1ccc2c(c1)nc(NCc1ccc(F)cc1)n2C)c1ccnc(Nc2ccc(CS(C)(=O)=O)cc2)n1.Cl [GW813244] Y

For this compound, is %Inh lower than 20%? O=C(Nc1cccc(C(F)(F)F)c1)c1cccc(Oc2ccc3nccn3n2)c1 Y

Below 20% on %Inh? Entry CC(C)S(=O)(=O)N1CCN(Cc2ccc3c(c2)nc(NC(=O)c2ccsc2)n3C[C@H](O)c2ccccc2)CC1 [GW635815] Y

Is 20% strictly greater than the compound's reported %Inh? compound: C[C@@H](Oc1cc(-n2cnc3cc(-c4cnn(C)c4)ccc32)sc1C(N)=O)c1ccccc1Cl [GSK580432] Y

----------
test system: MST4; details: concentration: 1 μM,replicates: in singlicate; n = 1
recordedMetric: %Inh (%)
Only the number, expressed in %, is required.

[
  {
    "compound": "O=C(Nc1cccc(C(F)(F)F)c1)c1cccc(Oc2ccc3nccn3n2)c1",
    "targetSystem": "MST4",
    "recordedMetric": "%Inh",
    "u": "%",
    "quantitativeReadout": 28
  }
]

Item: Cc1cccc(-c2nc(Nc3ccncc3)c3sccc3n2)n1 | %Inh: 40

Kindly note the recorded %Inh for C[C@@H](Oc1cc(-n2cnc3ccc(-c4ccncc4)cc32)sc1C(N)=O)c1ccccc1Cl , which is 0

Reported %Inh of CCNCC(Cc1ccccc1)NC(=O)c1cc(Br)c(-c2ccnc3[nH]ccc23)s1.Cl.Cl (centres unmarked) : 26

Lab note: measured %Inh of OCCn1cc(-c2cnc3nnn(Cc4ccc5ncccc5c4)c3n2)cn1 was 0

Per the record, CC(=O)Nc1ccc(-c2cc3ncnc(SCC(=O)O)c3s2)cc1 has %Inh of 2

Documented %Inh of Nc1nccc(-c2ccc3c(N)n[nH]c3c2)n1 : 0

The compound listed as Cc1nnc(-c2ccc3occ(-c4ccc(S(C)=O)cc4)c3n2)o1 (centres unmarked) shows %Inh equal to 0

Quick note, %Inh for CC(C)S(=O)(=O)N1CCN(Cc2ccc3c(c2)nc(NC(=O)c2ccsc2)n3C[C@H](O)c2ccccc2)CC1 landed at 0

compound Cc1ccc2c(-c3ccnc(Nc4ccc(C(F)(F)F)cc4)n3)cnn2n1 , %Inh observed: 0

Recorded %Inh (compound COc1cccc(CNC(=O)NC2CCN(c3ccnc(Nc4cc(OC)c(OC)c(OC)c4)n3)C2)c1 (centres unmarked) ): 0

// %Inh value for C[C@@H](Oc1cc(-n2cnc3cc(-c4cnn(C)c4)ccc32)sc1C(N)=O)c1ccccc1Cl : 14

GET /value?item= Cl.c1ccc(Oc2ccc(Nc3ccnc4cc(-c5ccc(CN6CCNCC6)o5)ccc34)cc2)nc1 &field=%Inh returns 0

Sample O=C(Nc1ccc(Oc2ccc3nc(NC(=O)C4CC4)cn3n2)c(F)c1)c1cccn(-c2ccccc2)c1=O ; %Inh observed: 0

The compound listed as Cn1ccc2ncnc(Oc3ccc(NC(=O)Nc4cc(C(C)(C)C)on4)c(Cl)c3)c21 shows %Inh equal to 0

Lab book: %Inh of Cn1ccc2ncnc(Oc3ccc(NC(=O)Nc4cnn(C(C)(C)C)c4)c(Cl)c3)c21 noted as 0

Per the record, CN1CCN(CCNc2nc3cc(Oc4ccc(NC(=O)Nc5cc(C(F)(F)F)ccc5F)cc4)ccc3[nH]2)CC1.Cl.Cl has %Inh of 0
